Test system: downy brome
Experiment: Test C pre-/postemergence test
Format: in vivo, Bromus tectorum
Settings: 125 g ai/ha, preemergence; scale 0 (no effect) to 100 (complete control)
Would you mind labelling by Bromegrass, Downy plant response rating? At or over 70 is rule met, under is rule not met.

1. Cn1nc(C(F)(F)F)c(C[S+]([O-])c2ccc(F)c[n+]2[O-])c1OC(F)F (centres unmarked)    rule met

*Q* State whether the measured Bromegrass, Downy plant response rating reaches 70, counting equality as reaching it, for Cc1cc[n+]([O-])c(S(=O)(=O)Cc2c(C(F)(F)F)nn(C)c2OCC(F)F)c1
*A* rule met

*Q* State whether the measured Bromegrass, Downy plant response rating reaches 70, counting equality as reaching it, for Cn1nc(C(F)(F)F)c(CS(=O)(=O)c2cccc[n+]2[O-])c1OCC(F)F
*A* rule met

*Q* State whether the measured Bromegrass, Downy plant response rating reaches 70, counting equality as reaching it, for CCc1cc[n+]([O-])c(S(=O)(=O)Cc2c(C(F)(F)F)nn(C)c2OC(F)F)c1
*A* rule met

*Q* State whether the measured Bromegrass, Downy plant response rating reaches 70, counting equality as reaching it, for Cn1nc(C(F)(F)F)c(CS(=O)(=O)c2ccc(Cl)c[n+]2[O-])c1OCC(F)(F)F
*A* rule not met

*Q* State whether the measured Bromegrass, Downy plant response rating reaches 70, counting equality as reaching it, for Cn1nc(C(F)(F)F)c(C[S+]([O-])c2ccc(F)c[n+]2[O-])c1Cl (centres unmarked)
*A* rule not met

*Q* State whether the measured Bromegrass, Downy plant response rating reaches 70, counting equality as reaching it, for CC(C)c1cc[n+]([O-])c([S+]([O-])Cc2c(C(F)(F)F)nn(C)c2OC(F)F)c1 (centres unmarked)
*A* rule met
